Target: UniProtKB P30405
Sequence (P30405 30-207): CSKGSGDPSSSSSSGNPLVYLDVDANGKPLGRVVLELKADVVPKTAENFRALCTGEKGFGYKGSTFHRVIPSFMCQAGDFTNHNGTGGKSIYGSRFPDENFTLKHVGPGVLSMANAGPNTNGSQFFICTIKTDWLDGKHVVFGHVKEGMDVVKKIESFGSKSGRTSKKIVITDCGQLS
Test: Rotamase activity (method of Kofron et al)
Format: biochemical
Conditions: 50 μM
measure_name: Rotamase activity % Control (% Control)

COC(=O)[C@@H](NC(=O)OCc1ccccc1)C(C)C [EM 3/27]
111
COC(=O)[C@@H](NC1=CC(=O)CC(C)(C)C1)C(C)C [EM 3/22/1]
110
CC1(C)CC(=O)C=C(OC(=O)[C@H](Cc2ccccc2)NC(=O)OCc2ccccc2)C1 [EM 3/26/1/2]
83
COC(=O)[C@H](Cc1ccccc1)NC(=C1C(=O)CC(C)(C)CC1=O)C(NC(=O)OCc1ccccc1)C(C)C (stereo partly drawn) [EM 2/40]
96
CC(C)[C@H](NC(=O)OC(C)(C)C)C(=O)OC1=CC(=O)CC(C)(C)C1 [EM 3/29/1/1]
107
CC(C)C(NC(=O)OCc1ccccc1)C(O)=C1C(=O)CC(C)(C)CC1=O (stereo not drawn) [EM 3/11/1]
109
